Readings of pKi for the listed compounds
# System: human NK3 receptor (Homo sapiens, UniProt P29371)
# Test description: [3H]SR142801 competition binding assay (hNK3 receptor binding)
# Setup conditions: [3H]SR142801 radioligand; membranes from HEK293 cells transiently expressing recombinant human NK3 receptor; Ki by Cheng-Prussoff; read-out: KiNK3 h
Note on units: pKi is unitless, being -log10 of a concentration expressed in mol/L.

INSERT INTO results (compound, measured_endpoint, reported_measurement) VALUES
  ('COc1ccc(C(=O)N2C[C@@H]([C@@H](C)Oc3ccc(C(F)(F)F)cc3)[C@H](c3ccc(Cl)c(Cl)c3)C2)cn1 (racemic)', 'pKi', 7.10),
  ('C[C@H](Oc1ccc(C(F)(F)F)cn1)[C@H]1CN(C(=O)c2ccc(Cl)nc2)C[C@@H]1c1ccc(Cl)c(Cl)c1 (racemic)', 'pKi', 8.32),
  ('C[C@H](Oc1ccc(C(F)(F)F)cn1)[C@H]1CN(C(=O)c2ccc(-n3cccn3)nc2)C[C@@H]1c1ccc(Cl)c(Cl)c1 (racemic)', 'pKi', 8.82),
  ('CCc1noc(-c2ccc(C(=O)N3C[C@H]([C@H](C)Oc4ccc(C#N)cn4)[C@@H](c4ccc(Cl)c(Cl)c4)C3)cc2)n1 (racemic)', 'pKi', 7.23),
  ('C[C@@H](Oc1ccc(C(F)(F)F)cc1)[C@@H]1CN(C(=O)c2ccc(C#N)cc2)C[C@H]1c1ccc(Cl)c(Cl)c1 (racemic)', 'pKi', 7.45);

*Q* Return the recorded pKi value; entry: Cc1cc(C(=O)N2C[C@H]([C@H](C)Oc3ccc(C#N)cn3)[C@@H](c3ccc(Cl)c(Cl)c3)C2)cnn1 (racemic)
*A* 8.04

*Q* Answer with the recorded pKi of C[C@H](Oc1ccc(C#N)cn1)[C@H]1CN(C(=O)c2ccc(-c3cnco3)cc2)C[C@@H]1c1ccc(Cl)c(Cl)c1 (racemic) only.
*A* 8.68

*Q* Output measured pKi for this item: Cc1cc(C(=O)N2C[C@H]([C@H](C)Oc3ccc(Cl)cn3)[C@@H](c3ccc(Cl)c(F)c3)C2)cnn1
*A* 8.59

*Q* # return recorded pKi for entry C[C@H](Oc1ccc(C#N)cn1)[C@H]1CN(C(=O)c2ccnnc2)C[C@@H]1c1ccc(Cl)c(Cl)c1 (racemic)
*A* 7.48

*Q* For the compound C[C@@H](Oc1ccc(Cl)cn1)[C@@H]1CN(C(=O)c2ccc(N)nc2)C[C@H]1c1ccc(Cl)c(Cl)c1 (racemic) , give its measured pKi value.
*A* 7.77

*Q* # return recorded pKi for input Cc1ncc(C(=O)N2C[C@H]([C@H](C)Oc3ccc(C#N)cn3)[C@@H](c3ccc(Cl)c(Cl)c3)C2)cn1 (racemic)
*A* 7.63

*Q* Let me know recorded pKi for COc1cc(C(=O)N2C[C@@H]([C@@H](C)Oc3ccc(Cl)cn3)[C@H](c3ccc(Cl)c(Cl)c3)C2)ccn1 (racemic) , thanks.
*A* 7.64

* * *

# System: human NK3 receptor (Homo sapiens)
# Test description: [3H]SR142801 competition binding assay (hNK3 receptor binding)
# Setup conditions: [3H]SR142801 radioligand; membranes from HEK293 cells transiently expressing recombinant human NK3 receptor; Ki by Cheng-Prussoff; read-out: KiNK3 h
The entries below come with measured Ki values attached.
Write down the numeric answer in nM and omit the unit.

Some compounds with recorded Ki:
INSERT INTO results (compound, reported_measurement) VALUES
  ('Cc1cc(C(=O)N2C[C@H]([C@H](C)Oc3ccc(C#N)cn3)[C@@H](c3ccc(Cl)c(Cl)c3)C2)c(Cl)nn1 (racemic)', 27.2),
  ('Cc1ccc(C(=O)N2C[C@H]([C@H](C)Oc3ccc(C#N)cn3)[C@@H](c3ccc(Cl)c(Cl)c3)C2)cn1 (racemic)', 14.7),
  ('C[C@H](Oc1ccc(C#N)cn1)[C@H]1CN(C(=O)c2ccc(C#N)nc2)C[C@@H]1c1ccc(Cl)c(Cl)c1 (racemic)', 5.4);

*Q* Return Ki for the following compound: Cc1ncc(C(=O)N2C[C@H]([C@H](C)Oc3ccc(C(F)(F)F)cn3)[C@@H](c3ccc(Cl)c(Cl)c3)C2)cn1 (racemic)
*A* 27.2

*Q* Give a short answer stating reported Ki for Cc1ncc(C(=O)N2C[C@H]([C@H](C)Oc3ccc(Cl)cn3)[C@@H](c3ccc(Cl)cc3)C2)cn1 .
*A* 24.1

*Q* Give Ki for Cc1cc(C(=O)N2C[C@H]([C@H](C)Oc3ccc(Cl)cn3)[C@@H](c3ccc(F)cc3)C2)cnn1
*A* 4

* * *

# System: human NK3 receptor (Homo sapiens)
# Construct: expressed in transfected cells; host or cells: HEK293 cells (transient expression), membrane preparation
# Sequence (P29371 1-465): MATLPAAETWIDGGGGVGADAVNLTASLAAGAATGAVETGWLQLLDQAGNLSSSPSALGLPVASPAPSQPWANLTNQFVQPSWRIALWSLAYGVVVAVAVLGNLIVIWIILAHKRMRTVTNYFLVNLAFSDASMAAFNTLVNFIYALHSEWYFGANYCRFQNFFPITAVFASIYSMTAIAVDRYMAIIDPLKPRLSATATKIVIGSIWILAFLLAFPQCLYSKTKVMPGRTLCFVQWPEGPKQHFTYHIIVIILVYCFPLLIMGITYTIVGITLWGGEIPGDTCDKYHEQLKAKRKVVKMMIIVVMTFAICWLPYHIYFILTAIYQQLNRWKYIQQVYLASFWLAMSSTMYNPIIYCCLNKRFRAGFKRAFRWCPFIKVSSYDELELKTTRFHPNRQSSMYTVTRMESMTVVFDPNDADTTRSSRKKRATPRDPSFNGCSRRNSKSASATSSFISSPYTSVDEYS
# Test description: [3H]SR142801 competition binding assay (hNK3 receptor binding)
# Setup conditions: [3H]SR142801 radioligand; membranes from HEK293 cells transiently expressing recombinant human NK3 receptor; Ki by Cheng-Prussoff; read-out: KiNK3 h
pKi: −log10 of the molar value.
Decide using pKi: a value greater than or equal to 8 is T, a smaller one is F.

Sample answers from the record:
INSERT INTO results (compound, assigned_label) VALUES
  ('Cc1cnc(C(=O)N2C[C@H]([C@H](C)Oc3ccc(C#N)cn3)[C@@H](c3ccc(Cl)c(Cl)c3)C2)cn1 (racemic) [Example 97]', 'F'),
  ('Cc1ncc(C(=O)N2C[C@H]([C@H](C)Oc3ccc(Cl)cn3)[C@@H](c3ccc(F)c(F)c3)C2)cn1 [Example 103]', 'F'),
  ('Cc1noc(-c2ccc(C(=O)N3C[C@H]([C@H](C)Oc4ccc(C(F)(F)F)cn4)[C@@H](c4ccc(Cl)c(Cl)c4)C3)cc2)n1 (racemic) [Example 83]', 'T');

Shift focus to the following entry.
*Q* Does the compound Cc1cc(C(=O)N2C[C@H]([C@H](C)Oc3ccc(Cl)cn3)[C@@H](c3ccc(Cl)cc3)C2)cnn1 [Example 108] have recorded pKi that is 8 or more?
*A* T

* * *

# pKi values compiled below
# System: UniProt:P29371
# Test description: [3H]SR142801 competition binding assay (hNK3 receptor binding)
# Setup conditions: [3H]SR142801 radioligand; membranes from HEK293 cells transiently expressing recombinant human NK3 receptor; Ki by Cheng-Prussoff; read-out: KiNK3 h
# Procedure: [^3H]SR^142801 Competition Binding Assay hNK3 receptor binding experiment were performed using [^3H]SR^142801 (Catalog No. TRK1035, specific activity: 74.0 Ci/mmol, Amersham, GE Healthcare UK limited, Buckinghamshire, UK) and membrane isolated from HEK293 cells transiently expressing recombinant human NK3 receptor. […] Nonspecific binding was measured in the presence of 10 μM SB222200 for both radioligands. […]
Worth noting: pKi values are minus log10 of concentrations stated in mol/L.

Solved cases (4 shown):
INSERT INTO assay_data (molecule, system, measured_endpoint, reported_measurement) VALUES
  ('Cc1cccc(C(=O)N2C[C@H]([C@H](C)Oc3ccc(C#N)cn3)[C@@H](c3ccc(Cl)c(Cl)c3)C2)n1 (racemic)', 'UniProt:P29371', 'pKi', 7.19),
  ('Cc1ccnc(C(=O)N2C[C@H]([C@H](C)Oc3ccc(C#N)cn3)[C@@H](c3ccc(Cl)c(Cl)c3)C2)c1 (racemic)', 'UniProt:P29371', 'pKi', 7.47),
  ('Cc1ncc(C(=O)N2C[C@H]([C@H](CO)Oc3ccc(Cl)cn3)[C@@H](c3ccc(Cl)c(Cl)c3)C2)cn1 (racemic)', 'UniProt:P29371', 'pKi', 7.25),
  ('Cc1ccc(C(=O)N2C[C@@H]([C@@H](C)Oc3ccc(Cl)cn3)[C@H](c3ccc(Cl)c(Cl)c3)C2)cn1 (racemic)', 'UniProt:P29371', 'pKi', 8.04);

*Q* Specify pKi for COc1ccc(C(=O)N2C[C@@H]([C@@H](C)Oc3ccc(C#N)cn3)[C@H](c3ccc(Cl)c(Cl)c3)C2)cn1 (racemic) and stop.
*A* 7.33

*Q* Identify measured pKi associated with C[C@@H](Oc1ccc(Cl)cn1)[C@@H]1CN(C(=O)c2ccc(N(C)C)cc2)C[C@H]1c1ccc(Cl)c(Cl)c1 (racemic)
*A* 7.30

*Q* Give pKi for C[C@H](Oc1ccc(C#N)cn1)[C@H]1CN(C(=O)c2cncc(F)c2)C[C@@H]1c1ccc(Cl)c(Cl)c1 (racemic)
*A* 7.73

*Q* Identify the reported pKi for the following entry. C[C@@H](Oc1ccc(Cl)cn1)[C@@H]1CN(C(=O)c2cnc(S(C)(=O)=O)nc2)C[C@H]1c1ccc(Cl)c(Cl)c1 (racemic)
*A* 7.10

*Q* Give the value of pKi reported for the following: C[C@H](Oc1ccc(C#N)cn1)[C@H]1CN(C(=O)c2ccc(S(C)(=O)=O)nc2)C[C@@H]1c1ccc(Cl)c(Cl)c1 (racemic)
*A* 8.42

*Q* Provide only the value of recorded pKi for Cc1cc(C(=O)N2C[C@@H]([C@@H](C)Oc3ccc(Cl)cn3)[C@H](c3ccc(Cl)c(Cl)c3)C2)c(C)n1C1CC1 (racemic)
*A* 8.30

*Q* Tell me its pKi given Cc1ncc(C(=O)N2CC(C(C)Oc3ccc(Cl)cn3)[C@H](c3ccc(Cl)c(Cl)c3)C2)cn1 (stereo in doubt) as the entry.
*A* 7.18

*Q* Specify reported pKi for the molecule shown: Cc1cc(C(=O)N2C[C@H]([C@H](C)Oc3ccc(Cl)cn3)[C@@H](c3ccc(F)c(F)c3)C2)c(C)nn1
*A* 7.75

*Q* Give a short answer stating reported pKi for Cc1ncc(C(=O)N2C[C@H]([C@H](C)Oc3ccc(Cl)cn3)[C@@H](c3ccc(F)c(Cl)c3)C2)cn1 .
*A* 7.34

*Q* For the molecule Cc1ncc(C(=O)N2C[C@@H]([C@@H](C)Oc3ccc(Cl)cn3)[C@H](c3ccc(Cl)c(Cl)c3)C2)cn1 (racemic) , give its reported pKi.
*A* 7.93
